- measurement-target: T1, phage displaying human IGF-1 (phage vector pIGF-g3) (human, UniProt P05019 49-118)
- T1 construct: Construct as in Dubaquie and Lowman; also called IGF-1 displaying phage; Phage IGF-1; not shown: g3 of the phage vector pIGF-g3 (M13 gene III protein)
- T1 sequence (P05019 49-118 limits assumed): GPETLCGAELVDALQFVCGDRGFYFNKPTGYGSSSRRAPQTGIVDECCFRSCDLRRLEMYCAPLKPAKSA
- protocol-notes: competition phage ELISA: peptide against IGF-1 phage binding to IGFBP-1 on plate
Bridge positions count the residues as written; N and C are the ends. Ends that are not written are not given here.
assay-endpoint: pIC50
One number for each entry, as −log10 of the molar value.

binder	measured-result
FECLTSVEALRGCMYG (synthetic peptide) [F1-3]	4.93
MDCLASVEALKWCMYG (synthetic peptide) [F1-2]	4.81

// switching to the query binder
Identify measured pIC50 associated with RNCFESVAALRRCMYG (disulfide 3-13, synthetic peptide; also called IGF-F1-1) [F1-1]
5.85
